System: Saccharomyces cerevisiae
EXPERIMENTAL_DETAILS: protein stability index of tFT-peptide fusion (C-terminal peptide) (PSI (0-1 scale)); higher = more stable (slower turnover)
TEST_PARAMETERS: genetic background: das1 deletion; temperature: 30 C
Task for the reader: assign each of the following sequences its reported protein stability index.
Answers are plain numbers.

Answered cases to consult:
Consider the sequence shown here: KKLSNDGETQAN [DMO2 C-terminal 12 aa] What is its recorded protein stability index?
0.681

Would you mind telling me what protein stability index value was observed for WEDKYPEMGVTV [YHL044W C-terminal 12 aa] ?
0.691

Record request: protein stability index value, item RMDEENYEEEFC [UBP11 C-terminal 12 aa]
0.716

Find the recorded protein stability index belonging to LKSIYTSERITI [RAD61 C-terminal 12 aa] and report it.
0.707

// query protein stability index value for entry IIRDFLIEKGFI [YNL320W C-terminal 12 aa]
0.731

Dear reader, for each entry below, please note its protein stability index.
1. LVIKRRGFEINT [PET122 C-terminal 12 aa]
2. NTDHKAGRSHLQ [PTC2 C-terminal 12 aa]
3. QTSAKVSIRLLY [SER33 C-terminal 12 aa]
4. HLNESVYSKPLP [YIL028W C-terminal 12 aa]

1: 0.66; 2: 0.713; 3: 0.659; 4: 0.694

---

Tested on: Saccharomyces cerevisiae
EXPERIMENTAL_DETAILS: protein stability index of tFT-peptide fusion (C-terminal peptide) (PSI (0-1 scale)); higher = more stable (slower turnover)
TEST_PARAMETERS: genetic background: das1 deletion; temperature: 30 C
Record form. Attribute: protein stability index. Fill in for each entry.
Answers are plain numbers.

Please review the entries below; each comes with its answer.
Which value of protein stability index has been reported for `LYFLLGSLVFVF` in the records?
0.273

Which protein stability index reading was recorded for the sequence `LHLLFLPFVVCL` ?
0.216

Fill blank: measured protein stability index of the sequence `PASYPPFIYLSI` is ____.
0.419

What value of protein stability index has been recorded for this entry: `VHNIDLFVVCYI`
0.251

Sample `GLSLVCWIVVLG` — what was its protein stability index?
0.189

Entry `VFVRDFLVSIVV` : reported protein stability index = ?
0.174

For every record below, what is its protein stability index?
1. YPRLVGGCWFRL
2. AFYQSGGLVVVV
3. CPPPCPLYMLLC
4. LFFASFLLIGPF
5. VMLVISRLLLLF
6. FLFFRFLVGCCF
7. ACLVAVWRWVFV

1: 0.371; 2: 0.459; 3: 0.536; 4: 0.375; 5: 0.455; 6: 0.339; 7: 0.309

---

System: Saccharomyces cerevisiae
EXPERIMENTAL_DETAILS: protein stability index of tFT-peptide fusion (C-terminal peptide) (PSI (0-1 scale)); higher = more stable (slower turnover)
TEST_PARAMETERS: genetic background: wild type; temperature: 30 C
RECORDED_METRIC: protein stability index
Give bare numbers.

If you can, please state the reported protein stability index value of `VAWAGRGPGRSG` .
0.713

Returns the measured protein stability index for the input sequence. Input: `SSLPPPPRSPPH`
0.715

Which protein stability index reading was recorded for the sequence `CGALRLPSSREV` ?
0.604

Given the entry `PPPPRATLPRPP` , report its measured protein stability index.
0.681

Give its protein stability index value. Item: `SYLWRINVSGCV`
0.696

Below are some sequences; for each one, tell me its protein stability index.
1. SSPPSPPPPTPS
2. PPPHSPVPPSQS
3. HKEYGTTCYGYR
4. GGVLERARRRGG

0.702
0.68
0.691
0.708

---

Tested on: Saccharomyces cerevisiae
EXPERIMENTAL_DETAILS: protein stability index of tFT-peptide fusion (C-terminal peptide) (PSI (0-1 scale)); higher = more stable (slower turnover)
TEST_PARAMETERS: genetic background: cdc53-1; temperature: 37 C
Short version: protein stability index at least 0.6 is Criterion met, less is Criterion not met.

These recorded examples may help you get a feel for the data.
Determine whether measured protein stability index meets or exceeds 0.6 for `VCVYLVSLPYLA`
Criterion not met

Please check the record `WVGVVLLSVVGG` and state if its protein stability index is at or above 0.6.
Criterion not met

Does protein stability index meet or surpass 0.6 for `RGGVCFVVWCGG` ?
Criterion not met

New cases:
Hello, I need to know if `ICFPLQIFRILV` has measured protein stability index not below 0.6. Thanks!
Criterion not met

Please indicate if the recorded protein stability index for `SRSVLLCFCWLC` meets or exceeds 0.6.
Criterion not met

Quick check: does `VFCMVLPFVLLT` have protein stability index greater than or equal to 0.6?
Criterion not met

Is it the case that `GWIFFYFTWFVG` has protein stability index reaching or exceeding 0.6?
Criterion not met

Record `VFVRDFLVSIVV` ; criterion: protein stability index no lower than 0.6. Met?
Criterion not met

Dear colleague, could you confirm whether `WEPILLELELCV` has protein stability index at or above 0.6?
Criterion not met

---

Please go through the items and note down their protein stability index.
System: Saccharomyces cerevisiae
EXPERIMENTAL_DETAILS: protein stability index of tFT-peptide fusion (C-terminal peptide) (PSI (0-1 scale)); higher = more stable (slower turnover)
TEST_PARAMETERS: genetic background: wild type; temperature: 30 C
Numbers only.

Examples with answers:
Suppose we examine the sequence `PIPPPPRACGPS` ; what protein stability index value has been reported?
0.7

Give the measured protein stability index of `SPAIRAILAPAG` .
0.445

Give the measured protein stability index of `VFLGRWKFFFWG` .
0.619

For every listed record, write down its protein stability index.
1. DVPKSGLEVWRR
2. LLAEPASSRFRP
3. RHLACFWFRPPW

1. 0.627
2. 0.722
3. 0.694

Provide protein stability index for all items below, preserving their order.
1. FPHRHAPYPSAI
2. SPGSVIVSASLL
3. SPHPPPPPSPPP
4. VGGAGDWRWGVW
5. LQASRHPASPST
6. PPSIEAAQPPYF
7. NLRQKQKKIKKT

1: 0.7; 2: 0.651; 3: 0.723; 4: 0.805; 5: 0.701; 6: 0.681; 7: 0.642

Lab note: each sequence below needs its protein stability index filled in.
1. PTKSQNEKTKAE
2. PSSPLSPAPPPP
3. HLLLLSLVFFFW
4. RRRTGRRNCTET

[0.679, 0.659, 0.744, 0.712]

---

System: Saccharomyces cerevisiae
EXPERIMENTAL_DETAILS: protein stability index of tFT-peptide fusion (C-terminal peptide) (PSI (0-1 scale)); higher = more stable (slower turnover)
TEST_PARAMETERS: genetic background: wild type; temperature: 30 C
Rule: protein stability index under 0.7 gives condition not met, otherwise condition met.

The following sequences have reported results that may help.
For this sequence, is measured protein stability index 0.7 or higher? `KLGLLKVRVCDG`
condition not met

Is protein stability index at least 0.7? Consider `LLFLWVLFLPFA`
condition not met

Record `DCVACFFFYSGG` ; criterion: protein stability index no lower than 0.7. Met?
condition not met

Is protein stability index at least 0.7? Consider `PPPPHYPHHTAS`
condition met

Is it the case that `GVGVGDCVRCMV` has protein stability index reaching or exceeding 0.7?
condition not met

Next:
Decide: is the reported value of protein stability index for `SPDFSVITKSYL` equal to or greater than 0.7?
condition met

Does protein stability index meet or surpass 0.7 for `INRGGLVRGFGS` ?
condition met

Check if protein stability index >= 0.7 (inclusive). Item: `PTHDPPSLHSPA`
condition not met

Please check the record `FDSSLFTVSQYH` and state if its protein stability index is at or above 0.7.
condition met

Reported protein stability index reaches at least 0.7 for `KKKNKENKKKKK` ?
condition met

---

Test system: Saccharomyces cerevisiae
EXPERIMENTAL_DETAILS: protein stability index of tFT-peptide fusion in deletion strain of DAS1 (PSI (0-1 scale)); higher = more stable (slower turnover)
RECORDED_METRIC: protein stability index
Numbers only.

Study these solved cases before continuing.
Given the sequence `RLMQPLPVQFLN` , what is its reported protein stability index?
0.572

Returns the measured protein stability index for the input sequence. Input: `FSMRWTFRYWGN`
0.547

Sample `VRVAVGGWRLVG` — what was its protein stability index?
0.652

Could you share which protein stability index value was measured for `ARGRVGLWRGAS` ?
0.685

List the reported protein stability index of each sequence below.
1. VDKRNHLIKLLN
2. PDKGNHLIKLLN
3. VRGAVGGWRKVG
4. KKHKKGYKQKIN
5. ARWRVGLWRDAS
6. VRGAVGGWRMVG
7. CTSCGYKFRTHN
8. FSARWTFRYWVN

[0.609, 0.635, 0.68, 0.607, 0.702, 0.685, 0.717, 0.553]
